Test system: DIPGX37 (H3.3 K27M diffuse intrinsic pontine glioma line)
Test: growth inhibition (% activity, log2 RLU normalised to DMSO / staurosporine); higher = more growth inhibition
Details: 33 µM
Property label: growth inhibition (%)
The answer is to be given in %; state only the numeric part.

Consider the following illustrative entries.
Compound	Unit spec	Data value
COC(=O)Nc1nc2cc(Sc3ccccc3)ccc2[nH]1	%	10.3
CCCCN1CCCCC1C(=O)Nc1c(C)cccc1C (centres undefined)	%	-1.09
O=C([O-])[C@H](O)[C@@H](O)[C@H](O)[C@H](O)CO.[Na+]	%	4.24
Nc1ccc(C(=O)O)c(O)c1	%	1.18
CNC[C@H](O)[C@@H](O)[C@H](O)[C@H](O)CO	%	3.72
c1ccc2[nH]c(-c3cscn3)nc2c1	%	0.956

Data request: Given the compound NNc1nncc2ccccc12 , what is its reported growth inhibition?
Data returned: 0.926

Data request: // query growth inhibition value for entry CC(C)OC(=O)OCOP(=O)(CO[C@H](C)Cn1cnc2c(N)ncnc21)OCOC(=O)OC(C)C
Data returned: -0.362

Data request: Given O=C1CCc2cc(OCCCCc3nnnn3C3CCCCC3)ccc2N1 , state its recorded growth inhibition.
Data returned: 2.01

Data request: Bench note: what growth inhibition did CC(C)(C(=O)O)c1ccc(C(O)CCCN2CCC(C(O)(c3ccccc3)c3ccccc3)CC2)cc1 (centres undefined) show?
Data returned: -1.1

Attribution: the supplement of paper PMC8253809
